These measurements were taken from patent US20230263822A1.

Test: Tolerability in Sprague-Dawley rats: hematology assays (Example 35)
Conditions: 50 mg/kg s.c. twice per week for 6 weeks, title says % control
Below: a set of entries, each annotated with reported MCH.
Property: MCH

1. ISIS 416864: MOE gapmer, nucleobases 1275 to 1318 of SEQ ID NO: 1 (Table 8) (antisense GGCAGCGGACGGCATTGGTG; MOE gapmer, wing and gap sizes not given here) | 2
2. ISIS 416838: MOE gapmer, nucleobases 1018 to 1042 of SEQ ID NO: 1 (Table 6) (antisense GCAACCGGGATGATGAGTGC; MOE gapmer, wing and gap sizes not given here) | 2
3. ISIS 416858: MOE gapmer, nucleobases 1275 to 1318 of SEQ ID NO: 1 (Table 8) (antisense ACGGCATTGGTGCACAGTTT; MOE gapmer, wing and gap sizes not given here) | 2
4. ISIS 417002: MOE gapmer, nucleobases 1275 to 1318 of SEQ ID NO: 1 (Table 8) (antisense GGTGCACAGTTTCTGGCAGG; MOE gapmer, wing and gap sizes not given here) | 3
5. ISIS 416850: MOE gapmer, nucleobases 1275 to 1318 of SEQ ID NO: 1 (Table 8) (antisense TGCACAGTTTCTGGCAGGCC; MOE gapmer, wing and gap sizes not given here) | 4
